Source of measurements: patent US20240132492A1

Parameter IC50: see the listing below.
Tested on: Bel-7402
Assay: CCK-8 tumor cell proliferation, Bel-7402
Assay type: cell-based
Conditions: Homo sapiens, Bel-7402 cells, 72 hours

COc1cc(N2CCN(C(=O)C34CC5CC(CC(C5)C3)C4)CC2)ccc1Nc1ncc2c(C)cc(=O)n(-c3cccc(NC(=O)C4CC4)c3)c2n1 [ZX-HYT-65] | > 10 µM
COc1cc(N2CCN(C(=O)CC34CC5CC(CC(C5)C3)C4)CC2)ccc1Nc1ncc2c(C)cc(=O)n(-c3cccc(NC(=O)C4CC4)c3)c2n1 [ZX-HYT-50] | > 10 µM
COc1cc(N2CCN(CCNC(=O)CC34CC5CC(CC(C5)C3)C4)CC2)ccc1Nc1ncc2c(C)cc(=O)n(-c3cccc(NC(=O)C4CC4)c3)c2n1 [ZX-HYT-51] | > 3 µM

Note: attention shifts to another entry.
What value of measured IC50 is listed for COc1cc(N2CCN(CCCCCCCCCCCCNC(=O)CC34CC5CC(CC(C5)C3)C4)CC2)ccc1Nc1ncc2c(C)cc(=O)n(-c3cccc(NCC4CC4)c3)c2n1 [ZX-HYT-19] ?
0.041 µM

* * *

System: A431
Experiment: CCK-8 tumor cell proliferation, A431
Format: cell-based
Settings: Homo sapiens, A-431, A431 cells, 72 hours
readout kind: IC50 (µM)

COc1cc(N2CCN(CCCCCCCCCCCCNC(=O)CC34CC5CC(CC(C5)C3)C4)CC2)ccc1Nc1ncc2c(C)cc(=O)n(-c3cccc(NC(=O)C4CCCCC4)c3)c2n1 | 2.29

P = C=CC(=O)Nc1cccc(-n2c(=O)cc(C)c3cnc(Nc4ccc(N5CCN(CCCCCCCCCCCCNC(=O)CC67CC8CC(CC(C8)C6)C7)CC5)cc4OC)nc32)c1
Q = COc1cc(N2CCN(CCCCCCCCCCCCNC(=O)CC34CC5CC(CC(C5)C3)C4)CC2)ccc1Nc1ncc2c(C)cc(=O)n(C3CCCC3)c2n1
Between the two listed entries P and Q , which has its IC50 at the higher number? Reply with the label of the item you choose.
Q
(Q: 0.212 µM, P: 0.00806 µM)

* * *

System: PC-9
Assay: CCK-8 tumor cell proliferation, PC-9
Type: cell-based
Details: Homo sapiens, PC-9 cells, 72 hours
readout kind: IC50 (µM)

COc1cc(N2CCN(CCCCCCCCCCCCNC(=O)CC34CC5CC(CC(C5)C3)C4)CC2)ccc1Nc1ncc2c(C)cc(=O)n(-c3cccc(N)c3)c2n1 | 0.0234

1 = C=CC(=O)Nc1cccc(-n2c(=O)cc(C)c3cnc(Nc4ccc(N5CCN(CCCCCCCCCCNC(=O)CC67CC8CC(CC(C8)C6)C7)CC5)cc4OC)nc32)c1
2 = C=CC(=O)Nc1cccc(-n2c(=O)cc(C)c3cnc(Nc4ccc(N5CCN(CCCCCCCCCCCCCCNC(=O)CC67CC8CC(CC(C8)C6)C7)CC5)cc4OC)nc32)c1
3 = C=CC(=O)Nc1cccc(-n2c(=O)cc(C)c3cnc(Nc4ccc(N5CCN(CCOCCOCCNC(=O)CC67CC8CC(CC(C8)C6)C7)CC5)cc4OC)nc32)c1
4 = C=CC(=O)Nc1cccc(-n2c(=O)cc(C)c3cnc(Nc4ccc(N5CCN(CCCCCCNC(=O)CC67CC8CC(CC(C8)C6)C7)CC5)cc4OC)nc32)c1
Put the items in order so that reported IC50 rises from first to last. The response must list the labels following the requested ordering.
1, 2, 4, 3
